SUBJECT_OF_TEST: TNFα (Homo sapiens (Human), UniProt P01375)
Sequence (P01375 77-233): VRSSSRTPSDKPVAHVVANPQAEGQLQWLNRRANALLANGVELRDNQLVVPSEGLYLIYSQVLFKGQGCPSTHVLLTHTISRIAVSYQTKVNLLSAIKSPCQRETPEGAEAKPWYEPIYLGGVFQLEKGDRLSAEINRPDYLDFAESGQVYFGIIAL
ASSAY: TNF induced HEK-Blue assay
EXPERIMENTAL_CONDITIONS: TNFα 0.5 ng/ml; HEK-Blue-CD40L cells, NF-kB-driven secreted alkaline phosphatase reporter; 18 h
pIC50: −log10 of the molar value.
READOUT_TYPE: pIC50

COMPOUND | SUBJECT_OF_TEST | REPORTED_MEASUREMENT
CC(C)(C)OC(=O)N1CC=C(c2cc3c(cc2F)nc2n3[C@@H](c3ccccc3OC(F)F)[C@H]3C[C@@H]23)CC1 | TNFα (Homo sapiens (Human), UniProt P01375) | 5.00 to 6.00
Fc1cc2nc3n(c2cc1-c1cnc(N2CCOCC2)nc1)[C@@H](c1ccccc1OC(F)F)[C@@H]1C[C@H]31 | TNFα (Homo sapiens (Human), UniProt P01375) | > 6.00
CC(C)(O)c1ncc(-c2cc3c(cc2F)nc2n3[C@@H](c3ccccc3OC(F)F)[C@@H]3C[C@H]23)cn1 (racemic) | TNFα (Homo sapiens (Human), UniProt P01375) | > 6.00
CC(C)(O)c1ncc(-c2cc3c(cc2F)nc2n3[C@@H](c3ccccc3OCc3ccccc3)[C@@H]3C[C@H]23)cn1 (racemic) | TNFα (Homo sapiens (Human), UniProt P01375) | 5.00 to 6.00
CC(C)(O)c1ccc(-c2cc3c(cc2F)nc2n3[C@@H](c3ccccc3OC(F)F)[C@H]3C[C@@H]23)cc1 | TNFα (Homo sapiens (Human), UniProt P01375) | > 6.00
O=C(O)CN1CCN(c2ncc(-c3cc4c(cc3F)nc3n4[C@@H](c4ccccc4OC(F)F)[C@H]4C[C@@H]34)cn2)CC1 | TNFα (Homo sapiens (Human), UniProt P01375) | > 6.00
COc1ccc(-c2ccc3nc4n(c3c2)[C@@H](c2ccccc2)[C@H]2CNC[C@@H]42)cn1 (racemic) | TNFα (Homo sapiens (Human), UniProt P01375) | 4.60 to 5.00
CC(C)(O)c1ncc(-c2cc3c(cc2F)nc2n3[C@H](c3ccccc3OC(F)F)[C@H]3C[C@@H]23)cn1 (stereo in doubt) | TNFα (Homo sapiens (Human), UniProt P01375) | > 6.00
CNC(=O)c1ccc(-c2ccc3nc4n(c3c2)[C@@H](c2cc(C)ccc2C)[C@H]2[C@H](c3ccccc3)[C@@H]42)cn1 (racemic) | TNFα (Homo sapiens (Human), UniProt P01375) | 4.60 to 5.00
OC1(c2ncc(-c3cc4c(cc3F)nc3n4[C@@H](c4ccccc4OC(F)F)[C@H]4C[C@@H]34)cn2)COC1 | TNFα (Homo sapiens (Human), UniProt P01375) | > 6.00

Ask | Recorded pIC50 of `O=S1(=O)CCN(c2ncc(-c3cc4c(cc3F)nc3n4[C@@H](c4ccccc4OC(F)F)[C@H]4C[C@@H]34)cn2)CC1` , please.
Reply | > 6.00

Ask | Recorded pIC50 of COc1ccc(-c2ccc3nc4n(c3c2)[C@@H](c2ccccc2)[C@H]2CN(C(C)=O)C[C@@H]42)cn1 (racemic) , please.
Reply | 4.60 to 5.00

Ask | Recorded pIC50 of `NS(=O)(=O)c1ccc(-c2cc3c(cc2F)nc2n3[C@@H](c3ccccc3OC(F)F)[C@H]3C[C@@H]23)cc1` , please.
Reply | > 6.00

* * *

SUBJECT_OF_TEST: TNFα (Homo sapiens (Human), UniProt P01375)
ASSAY: TNF induced HEK-Blue assay
Format: cell-based
EXPERIMENTAL_CONDITIONS: TNFα 0.5 ng/ml; HEK-Blue-CD40L cells, NF-kB-driven secreted alkaline phosphatase reporter; 18 h
pIC50: −log10 of the molar value.
READOUT_TYPE: pIC50

Worked examples, 3 compounds total:
COMPOUND | SUBJECT_OF_TEST | pIC50
COc1ccc(-c2ccc3nc4n(c3c2)[C@@H](c2ccccc2)[C@H]2CN(C(=O)c3ccccc3)C[C@@H]42)cn1 (racemic) | TNFα (Homo sapiens (Human), UniProt P01375) | 4.60 to 5.00
CC(C)(O)c1ncc(-c2cc3c(cc2F)nc2n3[C@H](c3ccccc3OC(F)F)[C@@H]3C[C@H]23)cn1 | TNFα (Homo sapiens (Human), UniProt P01375) | > 6.00
CCNC(=O)N1C[C@H]2[C@@H](C1)c1nc3ccc(-c4ccc(OC)nc4)cc3n1[C@H]2c1ccccc1 (racemic) | TNFα (Homo sapiens (Human), UniProt P01375) | 5.00 to 6.00

Ask | What measured pIC50 is associated with `CC(C)(O)c1ccc(-c2cc3c(cc2F)nc2n3[C@@H](c3ccccc3OC(F)F)[C@H]3C[C@@H]23)cn1` on TNFα (Homo sapiens (Human), UniProt P01375)?
Reply | > 6.00

Ask | What measured pIC50 is associated with COc1ccc(-c2ccc3nc4n(c3c2)[C@@H](c2ccccc2)[C@H]2CN(C(=O)NC(C)(C)C)C[C@@H]42)cn1 (racemic) on TNFα (Homo sapiens (Human), UniProt P01375)?
Reply | 5.00 to 6.00
